Data credit: PubChem BioAssay (EPA / NIEHS)

Assay: BSK_BE3C_SRB: Viability Assessment in the BioMAP Diversity Plus: BE3C Assay (AID 2283028);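 also: measured 24 h after chemical dosing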
Settings: primary human bronchial epithelial cells
Active and inactive are the calls of the source. The calls were made as follows: active = hit-call score of the fitted dose curve at least 0.9, where 1 is the maximum; inactive = score below 0.9.
Respond with a class label; see Yes (active), No (inactive)

Query: Each molecule tested received a call. Report the one for O=C(O)Cc1cc(I)c(Oc2ccc(O)c(I)c2)c(I)c1 .
Response: No

Query: Hey, what did the test say about CCCCCc1ccc(N)cc1 ?
Response: No

Query: Which outcome was assigned to NC(=O)c1nc(-c2cccc(-c3cc(F)ccc3OCC(F)(F)C(F)(F)F)c2)n[nH]1 in this test?
Response: Yes

Query: Give the logged outcome of this assay for the following molecule: O=C(O)c1ccccc1-n1cc(C(=O)O)c(=O)c2cc(Nc3c(F)cc(F)cc3Cl)c(Cl)cc21
Response: No

Query: Recorded test outcome, item O=c1c(-c2ccc(O)cc2)coc2cc(O)cc(O)c12
Response: No

Query: Per the assay record, what outcome was assigned to Cc1cn([C@H]2C[C@H](N=[N+]=[N-])[C@@H](CO)O2)c(=O)[nH]c1=O ?
Response: No

Query: For O=c1[nH]sc2ccccc12 , what call appears in the results of this test?
Response: Yes

Query: Check the results log: what was the call for Cc1oc2c(NC(=O)c3c(Cl)cccc3Cl)cccc2c1C(C)(C)O ?
Response: No

Query: I'd appreciate the recorded outcome for Cc1ccc2oc(CN(Cc3ccccc3)C(=O)Nc3c(F)cc(F)cc3F)c(-c3ccc(Cl)cc3)c2c1 from this test.
Response: No

Query: Assay outcome for COCC(C)OCC(C)OCC(C)O (configuration not stated) : what was it?
Response: No

Query: Hi, do you know how CCN(Cc1cccnc1)C(=O)c1cccc(Cl)c1[C@]1(C)C(=O)N(Cc2ccc(OC)cc2OC)c2ccc(Cl)cc21 came out in this test?
Response: No

Query: What call does the record list for CCCOC(=O)c1cc(O)c(O)c(O)c1 ?
Response: No

Query: Call for entry CC(C)(c1cc(Br)c(O)c(Br)c1)c1cc(Br)c(O)c(Br)c1 :
Response: Yes

Query: What call does the record list for C[C@]12CC[C@@H]3c4ccc(O)cc4CC[C@H]3[C@@H]1CCC2=O ?
Response: No

Query: Recorded test outcome, item O=C(O)c1ccccc1C(=O)OCc1ccccc1
Response: No

Query: Please indicate how the test categorized Cc1c2ccccc2c(C)c2c1ccc1ccccc12 .
Response: No

Query: Entry O=C(OCCCCCCOC(=O)c1ccccc1)c1ccccc1 : call = ?
Response: No

Query: Would you mind telling me which call this test gave CC1=CC(=O)/C(=C(/C)O)C(=O)O1 ?
Response: No

Query: What is the recorded call for this molecule in the test? O=CCCCC=O
Response: No

Query: Called result for O=c1ccc2ccccc2o1
Response: No

Query: // outcome(item) with item = COc1ccc2cc(S(=O)(=O)N[C@H](CC(=O)N[C@H](Cc3ccc(CN4[C@H](C)CCC[C@@H]4C)cc3)C(=O)N(C)C(C)C)c3ccc4c(c3)OCO4)ccc2c1
Response: No

Query: # lookup: test call for O=C(O)Cn1c(=O)n(Cc2ccc(Br)cc2F)c(=O)c2ccc(Cl)cc21
Response: No
